Experiment: chemical genetic growth profiling, strain panel (AID 1159580);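 note: tested at 20 µM; growth read once vehicle control cultures reached saturation at 30 °C; 1 = growth at the plate median or of vehicle wells; lower values mean less growth of the strain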
Conditions: S. cerevisiae deletion strains, growth OD, locus YIR030C, strain dcg1
The whole screen tested about 5,500 compounds, of which about 2,000 (36%) were called active. Another 18% or so got no clear call; they are omitted. Cut-off read from the data, not from the text of the source: active = normalized growth mostly below about 0.91 (no sharp cut-off); inconclusive = no clear call, values can overlap the other calls; inactive = mostly above about 0.92. Some of the results follow. Where a SMILES comes first, the peptide text is derived from it. Side-chain parts run from the residue outwards. [ ]: non-standard residue; d: D form. The star is where a group is joined. X1 = CCC(C)C(N)C1=NC(C(=O)*)CS1; Orn = NCCC[CH](N)C(=O)O
Possible outcomes: active, inactive

Compound	Label
COc1cc(NS(=O)(=O)c2ccc(N)cc2)ncn1	inactive
O=C(O)[C@H](O)[C@@](O)(Cc1ccc(O)cc1)C(=O)O	inactive
CCOc1ccc(C(=O)c2ccc(O)c(O)c2O)cc1	inactive
CC(=O)Oc1cc2c(c(C)c1OC(C)=O)CC1OC13C2(C)CCC1(C)C2CC(C)(C(=O)O)CCC2(C)CCC13C (stereo unspecified)	inactive
CC(C)CC1NC(=O)C(CCCN)NC(=O)C(C(C)C)NC(=O)C2CCCN2C(=O)C(Cc2ccccc2)NC(=O)C(CC(C)C)NC(=O)C(CCCN)NC(=O)C(C(C)C)NC(=O)C2CCCN2C(=O)C(Cc2ccccc2)NC1=O (stereo unspecified) (cyclo(FPV[Orn]LFPV[Orn]L); configuration not given here)	inactive
COc1ccc(C(=O)c2ccc(O)cc2)c(O)c1O	inactive
CC(=O)Oc1cccc(C(=O)O)c1OC(C)=O	inactive
CC(=O)Oc1cccc2c1C(=O)c1c(OC(C)=O)cc(C(=O)O)cc1C2=O	active
COC(=O)[C@]1(C)CC[C@]2(C)CC[C@]3(C)C4=CC=C5C(=CC(=O)C(O)=C5C)[C@]4(C)CC[C@@]3(C)[C@@H]2C1	inactive
CC1=C(O)C(=O)C=C2C1=CC=C1[C@@]2(C)CC[C@@]2(C)[C@@H]3C[C@](C)(C(=O)O)CC[C@]3(C)CC[C@]12C	active
CCC(C)C(N)C1=NC(C(=O)NC(CC(C)C)C(=O)NC(CCC(=O)O)C(=O)NC(C(=O)NCCCCC2NC(=O)C(CC(N)=O)NC(=O)C(CC(=O)O)NC(=O)C(Cc3cnc[nH]3)NC(=O)C(Cc3ccccc3)NC(=O)C(C(C)CC)NC(=O)C(CCCN)NC2=O)C(C)CC)CS1 (stereo not drawn) (cyclo(DNK([Ile-Glu-Leu-X1])[Orn]IFH); configuration not given here)	inactive
Cc1c(NC(=O)c2cccnc2)c(=O)n(-c2ccccc2)n1C	inactive
COc1ccc(C(=O)c2ccccc2)c(O)c1O	inactive
O=c1oc2c(O)c(O)cc3c(=O)oc4c(O)c(O)cc1c4c23	active
CCCc1nc2c(C)cc(-c3nc4ccccc4n3C)cc2n1Cc1ccc(-c2ccccc2C(=O)O)cc1	inactive
COc1ccc(C(=O)O)c(O)c1OC	inactive

* * *

Experiment: chemical genetic growth profiling, strain panel (AID 1159580)
Conditions: S. cerevisiae deletion strains, growth OD, locus YNL183C, strain NPR1, active compounds read low
Out of some 5,500 compounds screened, about 2,000 (36%) were called active. About 18% were inconclusive and are not listed. Some of the results follow.
Entries and their normalized growth
Attribute Measured: normalized growth

> print(dat)
                                    compound  recorded.result
 1     CNS(=O)(=O)Cc1ccc2[nH]cc(CCN(C)C)c2c1             0.97
 2                            COc1cccc(O)c1O            0.926
 3  COc1ccc([C@H]2COc3c(ccc(O)c3OC)C2)c(OC)c1O            0.974
 4  CCc1cccc2c3c([nH]c12)C(CC)(CC(=O)O)OCC3 (stereo unspecified)             0.93
 5  CN(C)CCc1c[nH]c2ccc(CS(=O)(=O)N3CCCC3)cc12            0.926
 6  CC(C)(C)C(=O)c1sc2sc(C(=O)C(C)(C)C)c(N)c2c1N            0.855
 7  C=C(C)[C@@H]1CC[C@]2(C)CC[C@]3(C)[C@@H](CCC4[C@@]5(C)CC[C@H](O)C(C)(C)C5CC[C@]43C)C12 (stereo partly specified)            0.923
 8                                  NC(=O)NO            0.945
 9  CN(C)CCc1c[nH]c2ccc(C[C@H]3COC(=O)N3)cc12            0.978
10  COc1cc2c(cc1O)CCNC2C (stereo unspecified)            0.974
11  C=C(C)[C@@H]1CC[C@]2(CO)CC[C@]3(C)[C@H](CCC4[C@@]5(C)CC[C@H](O)C(C)(C)C5CC[C@]43C)C12 (stereo partly specified)            0.939

* * *

Test: chemical genetic growth profiling, strain panel (AID 1159580);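 note: tested at 20 µM; growth read once vehicle control cultures reached saturation at 30 °C; 1 = growth at the plate median or of vehicle wells; lower values mean less growth of the strain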
Settings: S. cerevisiae deletion strains, growth OD, locus YJL187C, strain SWE1 (second series), active compounds read low
Screen size: about 5,500 compounds; about 2,000 (36%) were called active. Roughly 18% stayed inconclusive and do not appear here. The list shows a part of the results.
Attribute Measured: normalized growth

> print(dat)
                                   compound  recorded.result
1  Cc1onc(-c2ccccc2Cl)c1C(=O)N[C@@H]1C(=O)N2[C@@H]1SC(C)(C)[C@@H]2C(=O)O             1.02
2  CC(=O)OCC(=O)[C@@]1(O)CCC2C3CC[C@@H]4C[C@H](OC(C)=O)CC[C@]4(C)C3C(=O)C[C@@]21C (some centres undefined)            0.999
3  COc1cc2c(cc1OC)[C@@]13CCN4CC5=CCOC6CC(=O)N2C1[C@H]6[C@H]5C[C@H]43 (some centres undefined)             1.02
4  CC1(C)S[C@@H]2[C@H](NC(=O)Cc3ccccc3)C(=O)N2[C@H]1C(=O)O                1

* * *

Assay: chemical genetic growth profiling, strain panel (AID 1159580);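 note: tested at 20 µM; growth read once vehicle control cultures reached saturation at 30 °C; 1 = growth at the plate median or of vehicle wells; lower values mean less growth of the strain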
Conditions: S. cerevisiae deletion strains, growth OD, locus YDL101C, strain DUN1, active compounds read low
The whole screen tested about 5,500 compounds, of which about 2,000 (36%) were called active. Roughly 18% stayed inconclusive and do not appear here. This is one part of the list.
Entries and their normalized growth
Attribute Measured: normalized growth

> print(dat)
                        structure.string  recorded.result
1       COc1cccc(NC(=O)NC2Cc3ccccc3C2)c1            0.991
2      CCOc1ccc(C(=O)c2ccc(O)c(O)c2O)cc1            0.849
3          COc1ccc(C(=O)c2ccccc2)c(O)c1O            0.953
4                   CCOc1ccc(NC(C)=O)cc1             1.01
5  CC(=O)c1ccccc1C(=O)c1ccc(C(C)(C)C)cc1             0.95
6                   CCNc1nc(Cl)nc(NCC)n1             1.01
7                COc1ccc(C(=O)O)c(O)c1OC             1.01

* * *

Assay: chemical genetic growth profiling, strain panel (AID 1159580);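 note: tested at 20 µM; growth read once vehicle control cultures reached saturation at 30 °C; 1 = growth at the plate median or of vehicle wells; lower values mean less growth of the strain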
Settings: S. cerevisiae deletion strains, growth OD, locus YOR270C, strain vph1, active compounds read low
Out of some 5,500 compounds screened, about 2,000 (36%) were called active. About 18% were inconclusive and are not listed. The list shows a part of the results.
Attribute Measured: normalized growth

> print(dat)
                                   compound  recorded.result
1  COc1cccc(OC)c1C(=O)N[C@@H]1C(=O)N2[C@@H]1SC(C)(C)[C@@H]2C(=O)O                1
2  Cc1onc(-c2ccccc2Cl)c1C(=O)N[C@@H]1C(=O)N2[C@@H]1SC(C)(C)[C@@H]2C(=O)O             1.04
3  Cc1onc(-c2ccccc2)c1C(=O)NC1C(=O)N2[C@@H]1SC(C)(C)[C@@H]2C(=O)O (some centres undefined)             1.02
4  CC1(C)S[C@@H]2[C@H](NC(=O)[C@H](C(=O)O)c3cccs3)C(=O)N2[C@H]1C(=O)O                1
5                                  CC(=O)NO            0.944
6                                  NC(=O)NO             1.05
7  C=C(C)[C@H]1Cc2c(ccc3c2O[C@@H]2COc4cc(OC)c(OC)cc4[C@@H]2C3=O)O1            0.853
8  CC1(C)C(=O)[C@@H]2C[C@@]3(O)C4=CC(=O)O[C@@H](c5ccoc5)[C@]4(C)CCC3[C@@](C)(C2=O)[C@H]1CC(=O)O (some centres undefined)             1.06
9  CC(=O)OCC1=C(C(=O)O)N2C(=O)[C@@H](NC(=O)CCCC(N)C(=O)O)C2SC1 (some centres undefined)             1.08
